test system: TF-1; assay: In vitro cytotoxicity (IC50) assay, alamarBlue; type: cell-based; settings: Homo sapiens, 72 h; TF-1, AML M6; 3 days; read-out: Compound (I) IC50
outcome-measure: pIC50
// field semantics: pIC50 = negative decimal log of concentration (mol/L)

Ask: Name the recorded pIC50 for COc1ccc2c(c1)[C@]1(C[C@H]1c1ccc3c(/C=C/c4ccc(CN5C[C@@H](C)O[C@@H](C)C5)cc4)n[nH]c3c1)C(=O)N2 .
Reply: 8.66

====

test system: JURKAT; assay: In vitro cytotoxicity (IC50) assay, alamarBlue; assay type: cell-based; details: Homo sapiens, 72 h, T-ALL, 3 days, read-out: Compound (I) IC50
outcome-measure: pIC50
// field semantics: pIC50 = negative decimal log of concentration (mol/L)

Ask: Name the recorded pIC50 for COc1ccc2c(c1)[C@]1(C[C@H]1c1ccc3c(/C=C/c4ccc(CN5C[C@@H](C)O[C@@H](C)C5)cc4)n[nH]c3c1)C(=O)N2 .
Reply: 9.22

====

system: REH; test: In vitro cytotoxicity (IC50) assay, alamarBlue; assay type: cell-based; settings: Homo sapiens, 72 h, B-ALL, 3 days, read-out: Compound (I) IC50
outcome-measure: IC50

Ask: Name the recorded IC50 for COc1ccc2c(c1)[C@]1(C[C@H]1c1ccc3c(/C=C/c4ccc(CN5C[C@@H](C)O[C@@H](C)C5)cc4)n[nH]c3c1)C(=O)N2 .
Reply: 5.1 nM

====

system: THP-1; experiment: In vitro cytotoxicity (IC50) assay, alamarBlue; assay type: cell-based; conditions: Homo sapiens, 72 h; THP-1, AML M5; 3 days; read-out: Compound (I) IC50
outcome-measure: IC50 (nM)
Your answer is read as nM, so omit the unit and give the number.

Ask: Name the recorded IC50 for COc1ccc2c(c1)[C@]1(C[C@H]1c1ccc3c(/C=C/c4ccc(CN5C[C@@H](C)O[C@@H](C)C5)cc4)n[nH]c3c1)C(=O)N2 [Compound (I)] .
Reply: 1.4

====

tested on: DAUDI; assay: In vitro cytotoxicity (IC50) assay, alamarBlue; assay type: cell-based; conditions: Homo sapiens, 72 h, NHL B-Cell Burkitt, 3 days, read-out: Compound (I) IC50
outcome-measure: pIC50
// field semantics: pIC50 = negative decimal log of concentration (mol/L)

Ask: Name the recorded pIC50 for COc1ccc2c(c1)[C@]1(C[C@H]1c1ccc3c(/C=C/c4ccc(CN5C[C@@H](C)O[C@@H](C)C5)cc4)n[nH]c3c1)C(=O)N2 .
Reply: 9.70

====

system: SU-DHL-8; assay: In vitro cytotoxicity (IC50) assay, alamarBlue; format: cell-based; settings: Homo sapiens, 72 h; SU-DHL-8, NHL DLBCL; 3 days; read-out: Compound (I) IC50
outcome-measure: IC50 (nM)
Your answer is read as nM, so omit the unit and give the number.

Ask: Name the recorded IC50 for COc1ccc2c(c1)[C@]1(C[C@H]1c1ccc3c(/C=C/c4ccc(CN5C[C@@H](C)O[C@@H](C)C5)cc4)n[nH]c3c1)C(=O)N2 .
Reply: 12

====

tested on: MV4-11; test: In vitro cytotoxicity (IC50) assay, alamarBlue; type: cell-based, human; details: Homo sapiens, 72 h; MV4-11, AML M5; 3 days; read-out: Compound (I) IC50
outcome-measure: pIC50
// field semantics: pIC50 = negative decimal log of concentration (mol/L)

Ask: # get_value(readout= pIC50, system= MV4-11) for COc1ccc2c(c1)[C@]1(C[C@H]1c1ccc3c(/C=C/c4ccc(CN5C[C@@H](C)O[C@@H](C)C5)cc4)n[nH]c3c1)C(=O)N2 [Compound (I)]
Reply: 8.24
